Assay: chemical genetic growth profiling, strain panel (AID 1159580);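 further: tested at 20 µM; growth read once vehicle control cultures reached saturation at 30 °C; 1 = growth at the plate median or of vehicle wells; lower values mean less growth of the strain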
Details: S. cerevisiae deletion strains, growth OD, locus YFR003C, strain YPI1, stronger effect = lower value
The whole screen tested about 5,500 compounds, of which about 2,000 (36%) were called active. Another 18% or so got no clear call; they are omitted. Some of the results follow.
Test readout: normalized growth
Respond numerically, and do not add a unit to the figure.

Worked cases, answers included:
> print(dat)
                                   compound  quantitative.readout
1  O=S(=O)(Nc1ccccc1Oc1ccccc1)c1ccc(-c2ccno2)s1                 0.969
2  N/C(Cc1cccc2ccccc12)=N/OC(=O)c1ccc(Cl)cc1                 0.955
3  OC(COc1ccc(F)cc1)(c1ccc(Cl)cc1)c1ccc(Cl)cc1                 0.989
4  CCOC(=O)/C(C#N)=C(\Nc1ccc(C(=O)OCC)cc1)SC                 0.977
5  CC(=O)c1ccc(Cl)c(N=Cc2cc(Cl)cc(Cl)c2O)c1                 0.933
6  O=C(CSC1=NNC(c2ccccn2)S1)Nc1ccccc1 (stereo not given)                  1.01

Quick one: normalized growth of `O=C1c2cccc3c(Sc4ccccc4)ccc(c23)C(=O)N1NCCO` ? 0.923

Quick one: normalized growth of `O=S(=O)(Oc1ccc(-c2csnn2)cc1)c1ccccc1Cl` ? 0.972

Quick one: normalized growth of `O=C(NOC(=O)c1ccccc1)c1ccccc1` ? 0.0861

Quick one: normalized growth of `Cc1ccc(-c2csc(-c3ccncc3)n2)cc1` ? 0.921

Quick one: normalized growth of `CCOC(=O)c1ccc(Cl)c(N=Cc2cc(Cl)cc(Cl)c2O)c1` ? 0.946

Quick one: normalized growth of `O=C(Nc1cccc(Cl)c1)O/N=C1\CCCc2occc21` ? 0.937
